Data credit: PubChem BioAssay

assay: AGP1-GFP expression modulators, hit retest, confirmation, cell-based, flow cytometry, S. cerevisiae, cherry picks (AID 2273);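 also: median GFP channel fluorescence over the whole cell population gate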; conditions: S. cerevisiae AGP1-GFP strain, 3 h, at 10 µM
VALUE KIND: GFP response, % of DMSO (%)
Give just the numeric value; % need not be written.

Answered cases to consult:
>  <COMPOUND>
COc1ccc(OC)c(S(=O)(=O)ON2C(=O)c3ccccc3C2=O)c1

>  <U>
%

>  <GFP response, % of DMSO>
96.9

$$$$
>  <COMPOUND>
Cc1cccn2c(=O)c(/C=C(\C#N)C(=O)NCc3ccco3)c(N3CCC(C(N)=O)CC3)nc12

>  <U>
%

>  <GFP response, % of DMSO>
101

$$$$
>  <COMPOUND>
Cc1cc2ccccn2c1C(=O)c1ccc([N+](=O)[O-])o1

>  <U>
%

>  <GFP response, % of DMSO>
109

$$$$
>  <COMPOUND>
COc1ccccc1CN1C(=O)c2cccc3cccc(c23)C1=O

>  <U>
%

>  <GFP response, % of DMSO>
108

$$$$
>  <COMPOUND>
COc1cc(/C=C2\N=C(C)OC2=O)cc(Cl)c1OC(C)=O

>  <U>
%

>  <GFP response, % of DMSO>
99.8

$$$$

Requested field: GFP response, % of DMSO. Item: `Cc1ccc(C2=NOC(=O)/C2=C\c2ccc(C)o2)cc1`
97

Requested field: GFP response, % of DMSO. Item: `COCCCN(C(=O)c1ccco1)c1nc(-c2cc(OC)ccc2OC)cs1`
98.4

Requested field: GFP response, % of DMSO. Item: `Cc1ccc(NS(=O)(=O)c2ccc(CCC(=O)N3CCOCC3)cc2)cc1`
102

Requested field: GFP response, % of DMSO. Item: `O=C(Nc1ccccc1)c1c(F)cccc1F`
102

Requested field: GFP response, % of DMSO. Item: COc1ccc(OCC(O)CNC(=O)/C=C/c2cccc([N+](=O)[O-])c2)cc1 (stereo not drawn)
107

Requested field: GFP response, % of DMSO. Item: `O=C1c2cccc3c([N+](=O)[O-])ccc(c23)C(=O)N1O`
132

Requested field: GFP response, % of DMSO. Item: `Cc1cccc(CSCc2ccc(C(=O)NC(C)C)o2)c1`
101

Requested field: GFP response, % of DMSO. Item: COc1ccc(OC)c(S(=O)(=O)N2Cc3ccccc3CC2C(=O)O)c1 (stereo not drawn)
102

Requested field: GFP response, % of DMSO. Item: `O=C(O)c1ccc2c3c(ncnc13)-c1ccccc1C2=O`
105

Requested field: GFP response, % of DMSO. Item: `O=C(N/N=C/c1ccccc1Cl)c1ccc(F)cc1`
102

Requested field: GFP response, % of DMSO. Item: `O=C(Nc1cccc(O)c1)c1ccccc1`
101

Requested field: GFP response, % of DMSO. Item: `O=C(NC(=S)NNC(=O)c1cnccn1)c1ccc(Cl)cc1`
95.7

Requested field: GFP response, % of DMSO. Item: `COc1ccc(N2CCN(C(=O)c3ccc(Br)cc3)CC2)c([N+](=O)[O-])c1`
153

Requested field: GFP response, % of DMSO. Item: `O=C(Oc1ccnc2cc(Cl)ccc12)N1CCCCCC1`
185

Requested field: GFP response, % of DMSO. Item: CC1CCCN(CCCNC(=O)C2CCN(S(=O)(=O)N3CCC4(CC3)OCCO4)CC2)C1 (stereo not drawn)
98.9

Requested field: GFP response, % of DMSO. Item: `CSc1ccc(/C=C/C(=O)c2c(O)cc(C)oc2=O)cc1`
96.3

Requested field: GFP response, % of DMSO. Item: `O=C(O)Cn1cc(/C=C/[N+](=O)[O-])c2ccccc21`
93.9

Requested field: GFP response, % of DMSO. Item: `Cn1ncc(S(=O)(=O)Cc2ccccc2)c(Cl)c1=O`
79.1
